Listed next: entries and their corresponding GI50.
tested on: HT-29; test: NCI tumour cell line growth inhibition, 48 h
Active and inactive are the calls of the source. Rule as the data show it: active = GI50 up to about 1.1 µM and inactive = higher.
value-kind: GI50

| molecule | target-desc | value-kind | recorded-result |
| --- | --- | --- | --- |
| CCCCn1c2c(n(CCCC)c1=[Se])-c1c(n(CCCC)c(=[Se])n1CCCC)S[Se][Se]S2 | HT-29 | GI50 | 26.5 µM (inactive) |
| CCN(CC)c1ccc(/C=C/C2=NN(c3cccc(S(=O)(=O)O)c3)C3(C2)SCC(=O)N3c2nc3ccccc3s2)cc1 (stereo unspecified) | HT-29 | GI50 | 36.6 µM (inactive) |
| CC(C)CC1NC(=O)CCC(NC(=O)C(Cc2ccc(O)cc2)NC(=O)OCc2ccccc2)C(=O)NC(Cc2ccccc2)C(=O)NC(Cc2ccccc2)NC1=O (stereo unspecified) | HT-29 | GI50 | > 100 µM (inactive) |
| O=C1OC2(CC1C1(O)C3CC4CC(C3)CC1C4)C1CC3CC(C1)CC2C3 (stereo unspecified) | HT-29 | GI50 | > 100 µM (inactive) |
| Cc1ccc2nc(/C=N/c3ccccc3Cl)cc(C)c2c1 | HT-29 | GI50 | 18.4 µM (inactive) |
| COc1cc(C(C[N+](=O)[O-])SC(C)=O)ccc1OCc1ccccc1 (stereo unspecified) | HT-29 | GI50 | 2.4 µM (inactive) |
| O=C(O)c1nn(-c2ccc(Cl)cc2)c2c1C(=O)c1ccccc1C2=O | HT-29 | GI50 | > 100 µM (inactive) |
| COC(=O)C1Cc2c(n(Cc3ccccc3)c3ccccc23)C(CCC(=O)O)N1C(C)C (stereo unspecified) | HT-29 | GI50 | > 100 µM (inactive) |
| COc1cc2cnc3c4ccccc4ccc3c2cc1OC | HT-29 | GI50 | > 100 µM (inactive) |
| COC(=O)C(/C(=N/NC(N)=O)C(=O)Nc1ccc(C)cc1)c1nc2ccc([N+](=O)[O-])cc2nc1O (stereo unspecified) | HT-29 | GI50 | > 100 µM (inactive) |
| CCOP(=O)(OCC)OC1c2[nH]cc(C(=O)OCc3ccccc3)c2-c2cc(C(=O)OC)[nH]c2C1OC (stereo unspecified) | HT-29 | GI50 | 3.24 µM (inactive) |
| O=[N+]([O-])c1ccc2[nH]nc(OCc3ccccc3Cl)c2c1 | HT-29 | GI50 | > 100 µM (inactive) |
| O=C(CSCC(=O)N/N=C/c1cccc(O)c1)N/N=C/c1cccc(O)c1 | HT-29 | GI50 | > 100 µM (inactive) |
| COc1ccc2[nH]c3c(c2c1)CC(=S)N1CCCC(CC3=O)C1 (stereo unspecified) | HT-29 | GI50 | 45.4 µM (inactive) |
| O=C(O)CSSCC(=O)O | HT-29 | GI50 | > 100 µM (inactive) |
| c1csc(-c2ccc(-c3ccc(-c4cccs4)s3)s2)c1 | HT-29 | GI50 | > 100 µM (inactive) |
| O=Cc1ccccc1OCCOc1cc(OCCOc2ccccc2C=O)c(OCCOc2ccccc2C=O)cc1OCCOc1ccccc1C=O | HT-29 | GI50 | > 100 µM (inactive) |
| CC(=O)CC(=O)/C=C/c1cccs1 | HT-29 | GI50 | 58.9 µM (inactive) |
| Cc1cc2c(=O)cc(-c3ccc(Cl)cc3Cl)oc2c(C(=O)O)c1C | HT-29 | GI50 | > 100 µM (inactive) |
| COc1ccc(N2C(Cl)C(=O)C2c2c[nH]c3ccccc23)cc1 (stereo unspecified) | HT-29 | GI50 | > 100 µM (inactive) |
| Cc1ccc(/C=N/n2c(-c3ccc(C)cc3)n[nH]c2=O)cc1 | HT-29 | GI50 | > 100 µM (inactive) |
